# tgt: TNIK (Homo sapiens, UniProt Q9UKE5)
# Construct: purchased Promega V4158
# Sequence (Q9UKE5 1-367 limits assumed): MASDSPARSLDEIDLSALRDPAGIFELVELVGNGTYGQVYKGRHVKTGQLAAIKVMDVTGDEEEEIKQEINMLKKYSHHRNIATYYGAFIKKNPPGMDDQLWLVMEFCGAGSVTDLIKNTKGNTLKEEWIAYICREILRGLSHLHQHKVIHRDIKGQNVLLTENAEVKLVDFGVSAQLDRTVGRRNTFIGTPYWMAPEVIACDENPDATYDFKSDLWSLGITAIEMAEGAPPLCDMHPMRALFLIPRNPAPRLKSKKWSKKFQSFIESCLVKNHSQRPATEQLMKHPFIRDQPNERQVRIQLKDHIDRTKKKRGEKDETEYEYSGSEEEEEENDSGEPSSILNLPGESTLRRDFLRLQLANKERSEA
# procedure text: ADP-Glo Kinase Assay, inhibition activity on TNIK
# Type: biochemical
# run conditions: read-out: TNIK
measured quantity: IC50 (µM)
Give your result in µM as a bare value.

Solved entries:
line notation | IC50 (µM)
COc1cccc(-c2ccc(NC(=O)c3ccc(NCCN4CCCCCC4)cc3)c3c2CNC3=O)c1OC | 0.061
CNCCN(C)c1ccc(C(=O)Nc2ccc(-c3ccccc3)c3c2C(=O)NC3)cc1 | 1.1

Bench note: what IC50 did O=C(Nc1ccc(-c2ccco2)c2c1C(=O)NC2)c1ccc(F)cc1 show?
1.27

Bench note: what IC50 did COc1cccc(-c2ccc(NC(=O)c3ccccc3)c3c2CNC3=O)c1OC show?
0.057

Bench note: what IC50 did CCOc1ccccc1-c1ccc(NC(=O)c2ccccc2)c2c1CNC2=O show?
2.8

Bench note: what IC50 did O=C(Nc1ccc(Nc2ccccc2)c2c1C(=O)NC2)c1ccc(F)cc1 show?
0.28

Bench note: what IC50 did COc1cccc(Nc2ccc(NC(=O)c3ccc(NCCN4CCCC4)cc3)c3c2CNC3=O)c1 show?
0.55

Bench note: what IC50 did CCCCC(=O)Nc1ccc(-c2ccccc2)c2c1C(=O)NC2 show?
1.8

----------
# tgt: TNIK (Homo sapiens, UniProt Q9UKE5)
# Construct: purchased Promega V4158
# procedure text: ADP-Glo Kinase Assay, inhibition activity on TNIK
# Type: biochemical
# run conditions: read-out: TNIK
Checkbox rule: IC50 lower than 500 nM = Criterion met; IC50 not lower than 500 nM = Criterion not met.

Example cases with answers are listed next.
line notation | assigned label
COc1cccc(C(=O)Nc2ccc(-c3ccccc3)c3c2C(=O)NC3)c1 | Criterion not met
Cc1ccc(-c2ccc(NC(=O)c3ccccc3)c3c2CNC3=O)cc1 | Criterion not met
O=C(Nc1ccc(-c2cccc3ncccc23)c2c1C(=O)NC2)c1ccc(NCCN2CCCC2)cc1 | Criterion met
O=C(Nc1ccc(-c2ccccc2)c2c1C(=O)NC2)NC1CCCCC1 | Criterion not met
O=C(Nc1ccc(-c2cccc(F)c2F)c2c1C(=O)NC2)c1ccc(NCCN2CCOCC2)cc1 | Criterion met

Say whether its IC50 is strictly beneath 500 nM. Entry: CN(C)c1ccccc1C(=O)Nc1ccc(-c2ccccc2)c2c1C(=O)NC2
Criterion not met

Say whether its IC50 is strictly beneath 500 nM. Entry: CSc1ccccc1C(=O)Nc1ccc(-c2ccccc2)c2c1C(=O)NC2
Criterion not met

Say whether its IC50 is strictly beneath 500 nM. Entry: CN(C)CCNc1ccc(C(=O)Nc2ccc(-c3cccc4ncoc34)c3c2C(=O)NC3)cc1
Criterion met

Say whether its IC50 is strictly beneath 500 nM. Entry: CS(=O)(=O)c1ccccc1C(=O)Nc1ccc(-c2ccccc2)c2c1C(=O)NC2
Criterion not met

Say whether its IC50 is strictly beneath 500 nM. Entry: Cc1cccc(-c2ccc(NC(=O)c3ccccc3)c3c2CNC3=O)c1
Criterion not met

----------
# tgt: TNIK (Homo sapiens)
# Construct: purchased Promega V4158
# procedure text: ADP-Glo Kinase Assay, inhibition activity on TNIK
# Format: biochemical
# run conditions: read-out: TNIK
Reported values of pIC50 for individual entries
Note on pIC50: it is the negative log10 of concentration, concentration in mol/L.

Solved entries:
compound | pIC50
COc1ccccc1-c1ccc(NC(=O)c2ccc(N3CCN(C)CC3)cc2)c2c1CNC2=O | 6.43
Cn1cc(-c2ccc(NC(=O)c3ccccc3)c3c2CNC3=O)cn1 | 5.66
O=C(Nc1ccc(-c2ccco2)c2c1C(=O)NC2)c1ccccc1 | 6.22

Bench note: what pIC50 did O=C(Nc1ccc(-c2ccnc3ccccc23)c2c1C(=O)NC2)c1ccc(NCCN2CCCC2)cc1 show?
7.48

Bench note: what pIC50 did COCCNc1ccc(C(=O)Nc2ccc(Nc3ccccc3)c3c2C(=O)NC3)cc1 show?
6.96

Bench note: what pIC50 did Cc1ccccc1Nc1ccc(NC(=O)c2ccc(NCCCN3CCCCC3)cc2)c2c1CNC2=O show?
6.60

Bench note: what pIC50 did O=C(Nc1ccc(Nc2ccc(F)cc2)c2c1C(=O)NC2)c1ccccc1 show?
6.26

Bench note: what pIC50 did COc1cccc(-c2ccc(NC(=O)c3ccc(OCCN4CCOCC4)cc3)c3c2CNC3=O)c1OC show?
6.70

Bench note: what pIC50 did O=C(Nc1ccc(-c2ccccc2)c2c1C(=O)NC2)c1ccc(NCCN2CCCCCC2)cc1 show?
6.25

Bench note: what pIC50 did COc1ccccc1-c1ccc(NC(=O)c2ccc(NCCN3CCCC3)cc2)c2c1CNC2=O [Example 318] show?
6.59

----------
Reported values of IC50 for individual entries
# tgt: TNIK (Homo sapiens)
# Construct: purchased Promega V4158
# procedure text: ADP-Glo Kinase Assay, inhibition activity on TNIK
# Type: biochemical
# run conditions: read-out: TNIK
Give your result in nM as a bare value.

Solved entries:
line notation | unit | data value
O=C(Nc1ccc(-c2ccccc2)c2c1C(=O)NC2)c1ccc(NCCO)cc1 | nM | 230
Cc1ccc(C(=O)Nc2ccc(-c3ccccc3)c3c2C(=O)NC3)cc1C | nM | 1100
COc1c(F)cccc1-c1ccc(NC(=O)c2ccc(NCCN3CCCC3)cc2)c2c1CNC2=O | nM | 450

Now for a further molecule.
Bench note: what IC50 did CN(C)CCNc1ccc(C(=O)Nc2ccc(-c3cccc(F)c3F)c3c2C(=O)NC3)cc1 show?
280

----------
Reported values of pIC50 for individual entries
# tgt: TNIK (Homo sapiens, UniProt Q9UKE5)
# Construct: purchased Promega V4158
# procedure text: ADP-Glo Kinase Assay, inhibition activity on TNIK
# Assay type: biochemical
# run conditions: read-out: TNIK
Note on pIC50: it is the negative log10 of concentration, concentration in mol/L.

line notation | tgt | pIC50
CN(C)CCNc1ccc(C(=O)Nc2ccc(Nc3ccccc3)c3c2C(=O)NC3)cc1 | TNIK (Homo sapiens, UniProt Q9UKE5) | 6.62
CSc1ccccc1-c1ccc(NC(=O)c2ccccc2)c2c1CNC2=O | TNIK (Homo sapiens, UniProt Q9UKE5) | 5.96
Cc1ccc(-c2ccc(NC(=O)c3ccccc3)c3c2CNC3=O)c(C)c1 | TNIK (Homo sapiens, UniProt Q9UKE5) | 5.77

Bench note: what pIC50 did Cc1ccccc1-c1ccc(NC(=O)c2ccccc2)c2c1CNC2=O show?
5.66

Bench note: what pIC50 did O=C(Nc1ccc(-c2ccccc2)c2c1C(=O)NC2)c1ccc(Cl)s1 show?
5.45

Bench note: what pIC50 did COc1ccccc1-c1ccc(NC(=O)c2ccc(NCCN(C)C)cc2)c2c1CNC2=O show?
6.70

Bench note: what pIC50 did O=C(Nc1ccc(-c2ccccc2)c2c1C(=O)NC2)c1ccc(NCCCN2CCCC2)cc1 show?
6.48

Bench note: what pIC50 did O=C(Nc1ccc(Nc2ccccc2)c2c1C(=O)NC2)c1ccccc1F show?
6.10

----------
# tgt: TNIK (Homo sapiens, UniProt Q9UKE5)
# Construct: purchased Promega V4158
# procedure text: ADP-Glo Kinase Assay, inhibition activity on TNIK
# Type: biochemical
# run conditions: read-out: TNIK
# Description: The inhibition activities on TNIK, IKKε and TBK1 were measured by a luminometer, TNIK/IKKε/TBK1 Kinase Enzyme System (Promega, Ca# V4158; Invitrogen, PR8031B, Promega, Ca# V3991) and ADP-Glo Kinase Assay using ADP-Glo™ Kinase Analysis Kit (Promega, Ca# V9101) and a kinase reaction buffer [40 mM Tris(pH 7.5), 20 mM MgCl2, 0.1 mg/mL BSA] in accordance with the manufacturer's protocol.
Reported values of IC50 for individual entries
Give your result in nM as a bare value.

compound | measured quantity | data value
CCc1ccccc1-c1ccc(NC(=O)c2ccccc2)c2c1CNC2=O | IC50 | 3100
O=C(Nc1ccc(Nc2cccc(Cl)c2)c2c1C(=O)NC2)c1ccc(NCCCN2CCCCC2)cc1 | IC50 | 240
COc1ccccc1Nc1ccc(NC(=O)c2ccc(NCCCN3CCCC3)cc2)c2c1CNC2=O | IC50 | 470
CN(C)CCCNc1ccc(C(=O)Nc2ccc(-c3ccco3)c3c2C(=O)NC3)cc1 | IC50 | 430
COc1cccc(-c2ccc(NC(=O)c3ccc(NCCN4CCOCC4)cc3)c3c2CNC3=O)c1OC | IC50 | 75

Now for a further compound.
Bench note: what IC50 did O=C(Nc1ccc(-c2ncn[nH]2)c2c1C(=O)NC2)c1ccccc1 show?
2670

----------
# tgt: TNIK (Homo sapiens, UniProt Q9UKE5)
# Construct: purchased Promega V4158
# procedure text: ADP-Glo Kinase Assay, inhibition activity on TNIK
# Type: biochemical
# run conditions: read-out: TNIK
Counter-ions that a name gives are not always drawn.
Checkbox rule: IC50 lower than 700 nM = Criterion met; IC50 not lower than 700 nM = Criterion not met.

Example cases with answers are listed next.
compound | assigned label
CN1CCN(CCCNc2ccc(C(=O)Nc3ccc(-c4ccccc4)c4c3C(=O)NC4)cc2)CC1 | Criterion met
O=C(Nc1ccc(-c2ccc(OC(F)(F)F)cc2)c2c1C(=O)NC2)c1ccccc1 | Criterion not met
O=C(Nc1ccc(-c2ccc(CN3CCOCC3)s2)c2c1C(=O)NC2)c1ccccc1 | Criterion not met
O=C(Nc1ccc(Nc2ccccc2)c2c1C(=O)NC2)c1ccc(NCCCN2CCCCC2)cc1 [Example 480, hydrochloride] | Criterion met
COc1cccc(-c2ccc(NC(=O)c3cccs3)c3c2CNC3=O)c1OC | Criterion met

Say whether its IC50 is strictly beneath 700 nM. Entry: COc1ccc(C(=O)Nc2ccc(-c3ccc(F)cc3)c3c2C(=O)NC3)cc1
Criterion not met

Say whether its IC50 is strictly beneath 700 nM. Entry: O=C(Nc1ccc(Nc2ccccc2)c2c1C(=O)NC2)c1cccc(F)c1
Criterion not met

Say whether its IC50 is strictly beneath 700 nM. Entry: O=C(Nc1ccc(Nc2ccccc2Cl)c2c1C(=O)NC2)c1ccc(F)cc1
Criterion not met

Say whether its IC50 is strictly beneath 700 nM. Entry: O=C(Nc1ccc(-c2cscn2)c2c1C(=O)NC2)c1ccccc1
Criterion not met

Say whether its IC50 is strictly beneath 700 nM. Entry: COc1cccc(-c2ccc(NC(=O)c3ccc(NCCN(C)C)cc3)c3c2CNC3=O)c1OC
Criterion met

Say whether its IC50 is strictly beneath 700 nM. Entry: Cc1ccccc1Nc1ccc(NC(=O)c2ccc(NCCCN3CCCC3)cc2)c2c1CNC2=O
Criterion met

Say whether its IC50 is strictly beneath 700 nM. Entry: O=C(Nc1ccc(-c2ccc(Cl)cc2)c2c1C(=O)NC2)c1ccccc1
Criterion not met

Say whether its IC50 is strictly beneath 700 nM. Entry: CN1CCN(CCNc2ccc(C(=O)Nc3ccc(-c4ccco4)c4c3C(=O)NC4)cc2)CC1
Criterion met

Ref: patent US9856216B2
